# study.target: UniProt:P06239
# test.summary: Lck kinase activity, TR-FRET assay
# Format: biochemical
# condition.context: read-out: LCK (IC50)
pIC50: −log10 of the molar value.
assay.endpoint: pIC50

Cc1cccc2nc(-c3ccc(Oc4ccnc5[nH]nc(N[C@@H]6CCCN(C(=O)C7CC7)C6)c45)cc3)oc12 [compound 220]; < 5.00
CCNC(=O)N1CC[C@@H](Nc2n[nH]c3nccc(Oc4ccc(C(=O)Nc5cc(C(F)(F)F)ccn5)cc4)c23)C1 [compound 188]; 6.00 to 7.00
CC#CC(=O)N1CCC[C@@H](Nc2n[nH]c3nccc(Oc4ccc(C(=O)Nc5ncc(C)s5)cc4)c23)C1 [compound 141]; 5.00 to 6.00

====

# study.target: Lck (Homo sapiens, UniProt P06239)
# Sequence (P06239 whole entry, species assumed): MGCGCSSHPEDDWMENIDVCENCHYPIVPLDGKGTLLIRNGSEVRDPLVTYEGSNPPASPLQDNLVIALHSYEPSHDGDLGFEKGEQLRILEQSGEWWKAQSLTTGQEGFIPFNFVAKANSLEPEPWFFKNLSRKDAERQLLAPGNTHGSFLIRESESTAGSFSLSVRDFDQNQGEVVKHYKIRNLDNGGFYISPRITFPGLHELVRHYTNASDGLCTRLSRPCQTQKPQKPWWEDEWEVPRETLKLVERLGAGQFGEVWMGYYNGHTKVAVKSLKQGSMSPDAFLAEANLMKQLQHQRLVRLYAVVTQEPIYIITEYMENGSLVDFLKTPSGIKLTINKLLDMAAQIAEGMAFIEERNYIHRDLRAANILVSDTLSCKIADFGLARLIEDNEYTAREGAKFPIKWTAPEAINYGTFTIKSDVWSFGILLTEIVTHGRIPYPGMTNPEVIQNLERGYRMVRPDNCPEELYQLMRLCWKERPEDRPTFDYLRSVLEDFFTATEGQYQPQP
# test.summary: Lck kinase activity, TR-FRET assay
# Assay type: biochemical
# condition.context: read-out: LCK (IC50)
pIC50: −log10 of the molar value.
assay.endpoint: pIC50

Cc1ccnc(NC(=O)c2ccc(Oc3ccnc4[nH]nc(N[C@@H]5CCCN(C(=O)[C@H]6CCOC6)C5)c34)cc2)c1; 6.00 to 7.00
CCNC(=O)N1CCCC(c2n[nH]c3nccc(Oc4ccc(C(=O)Nc5cc(C(F)(F)F)ccn5)cc4)c23)C1 (stereo not drawn); 6.00 to 7.00
CN1CCC(C(=O)N2CCC[C@@H](Nc3n[nH]c4nccc(Oc5ccc(C(=O)Nc6cc(C(F)(F)F)ccn6)cc5)c34)C2)CC1; > 7.00
CCNC(=O)N1CC[C@@H](Nc2n[nH]c3nccc(Oc4ccc(C(=O)Nc5ncc(C)s5)cc4)c23)C1; 5.00 to 6.00
CC#CC(=O)N1CCC[C@@H](Nc2n[nH]c3nccc(Oc4ccc(C(=O)Nc5cc(C)ccn5)cc4)c23)C1; 6.00 to 7.00
Cc1ccnc(NC(=O)c2ccc(Oc3ccnc4[nH]nc(N[C@@H]5CCCN(C(=O)C6CCN(C)CC6)C5)c34)cc2)c1; 6.00 to 7.00
CCOP(=O)(CC(=O)N1CCC[C@@H](Nc2n[nH]c3nccc(Oc4ccc(C(=O)Nc5cc(C)ccn5)cc4)c23)C1)OCC; 6.00 to 7.00
COCCC(=O)N1CCC[C@@H](Nc2n[nH]c3nccc(Oc4ccc(C(=O)Nc5cc(C#N)ccn5)cc4)c23)C1; 6.00 to 7.00
CCC(=O)N1CC[C@@H](Nc2n[nH]c3nccc(Oc4ccc(C(=O)Nc5nccn5C)cc4)c23)C1; < 5.00
Cc1cc(NC(=O)c2cccc(Nc3ccnc4[nH]nc(N[C@@H]5CCCN(C(=O)C6CC6)C5)c34)c2)ccc1C(C)C; 5.00 to 6.00
CN(C/C=C/C(=O)N1CC[C@@H](Nc2n[nH]c3nccc(Oc4cccc(Oc5ccccc5)c4)c23)C1)C1CC1; 5.00 to 6.00
CN(C)C/C=C/C(=O)N1CC[C@@H](Nc2n[nH]c3nccc(Oc4ccc(Oc5ccccc5)cc4C#N)c23)C1; 6.00 to 7.00
Cc1ccnc(NC(=O)c2ccc(Oc3ccnc4[nH]nc(NC5CCN(C#N)CC5)c34)cc2)c1; 6.00 to 7.00
COCCCC(=O)N1CCC[C@@H](Nc2n[nH]c3nccc(Oc4ccc(C(=O)Nc5cc(C)ccn5)cc4)c23)C1; 6.00 to 7.00
C=CC(=O)N1CCC[C@@H](Nc2n[nH]c3nccc(Oc4ccc(C(=O)Nc5nc6c(s5)CCN(C)C6)cc4)c23)C1; < 5.00

Origin of the recorded values: patent US9580416B2
